Tested on: Staphylococcus aureus MW2 delta-mecA (mecA-)
ASSAY NAME: normalized GFP fluorescence (growth of mecA- strain) (fraction of control range); higher = more growth of mecA- strain
CONDITION: compound concentration: 150 uM; cefoxitin: subinhibitory; fluorescent label: GFP
normalized GFP fluorescence class ranges: range 1 = under 0.3, range 2 = from 0.3 up to 0.4, range 3 = 0.4 and over

MOLECULE	ASSIGNED LABEL
C#C[C@]1(O)CC[C@H]2[C@@H]3CCC4=CC(=O)CC[C@]4(C)[C@H]3CC[C@@]21C	range 3
Oc1cccc2cccnc12	range 1
NCCCNCCSP(=O)(O)O	range 3
CC(NC(C)(C)C)C(=O)c1cccc(Cl)c1 (centres undefined)	range 2
NC(=O)CN1CCCC1=O	range 1
O=c1[nH]c2ccccc2n1CCCN1CCC(n2c(=O)[nH]c3cc(Cl)ccc32)CC1 [Domperidone (Motilium)]	range 1
CNc1ccc(C(=O)CC(O)CCC(C)C2OC(=O)CC(O)CC(=O)CC(O)CC(O)CC(O)CC(O)CC3(O)CC(O)C(C(=O)OC)C(CC(O[C@@H]4O[C@H](C)[C@@H](O)[C@H](N)[C@@H]4O)/C=C/C=C/C=C/C=C/C=C/C=C/C=C/C2C)O3)cc1.COC(=O)C1C(O)CC2(O)CC(O)CC(O)CC(O)CC(O)CC(=O)CC(O)CC(=O)OC(C(C)CCC(O)CC(=O)c3ccc(N)cc3)C(C)/C=C/C=C/C=C/C=C/C=C/C=C/C=C/C(O[C@@H]3O[C@H](C)[C@@H](O)[C@H](N)[C@@H]3O)CC1O2 (some centres undefined)	range 3
CNC(=O)Oc1ccc2c(c1)[C@]1(C)CCN(C)[C@@H]1N2C	range 3
CC(C)N(CCNC(=O)CN1CCCC1=O)C(C)C [Pramiracetam]	range 3
Cc1cccc([C@H](C)c2c[nH]cn2)c1C [Dexmedetomidine]	range 1
C[C@]12CC[C@@H]3c4ccc(OC(=O)N(CCCl)CCCl)cc4CC[C@H]3[C@@H]1CC[C@@H]2O	range 1
CN1[C@@H]2C[C@@H](OC(=O)[C@H](CO)c3ccccc3)C[C@H]1[C@@H]1O[C@@H]12	range 3
CNC(C)[C@H](O)c1ccccc1 (some centres undefined)	range 2
C#C[C@]1(O)C=C[C@H]2[C@@H]3CCC4=CC(=O)CC[C@@H]4[C@H]3CC[C@@]21CC [Gestodene]	range 2
CC[C@@H](CO)NC(=O)[C@@H]1C=C2c3cccc4c3c(cn4C)C[C@H]2N(C)C1	range 1
COc1cc2c(c(OC)c1OC)-c1ccc(OC)c(=O)cc1[C@@H](NC(C)=O)CC2	range 1
COc1ccc2c(c1)[C@]13CCCC[C@@H]1[C@H](C2)N(C)CC3	range 1
COP(=O)(OC)C(O)C(Cl)(Cl)Cl (centres undefined)	range 1
O=C1CC[C@@]2(O)[C@H]3Cc4ccc(O)c5c4[C@@]2(CCN3CC2CC2)[C@H]1O5	range 1
C[C@]12CC[C@H]3[C@@H](CCC4=CC(=O)CC[C@@]43C)[C@@H]1CC[C@@H]2O	range 3
CN1CCN(C(=O)O[C@H]2c3nccnc3C(=O)N2c2ccc(Cl)cn2)CC1	range 2
C=CCN1CC[C@]23c4c5ccc(O)c4O[C@H]2C(=O)CC[C@@]3(O)[C@H]1C5	range 3
Oc1ccc2c3c1O[C@H]1[C@@H](O)CC[C@@]4(O)[C@@H](C2)N(CC2CCC2)CC[C@]314	range 3
CC(C)c1cccc(C(C)C)c1O	range 1
NC(=O)C[S@@+]([O-])C(c1ccccc1)c1ccccc1	range 1
CC(C)CC(N(C)C)C1(c2ccc(Cl)cc2)CCC1 (centres undefined)	range 1
NC(=O)C[S+]([O-])C(c1ccccc1)c1ccccc1 (centres undefined)	range 3
COc1ccc(C(CN(C)C)C2(O)CCCCC2)cc1 (centres undefined)	range 3
C[C@]12CCC(=O)C(O)=C1CC[C@@H]1[C@@H]2CC[C@]2(C)C(=O)CC[C@@H]12 [Formestane]	range 3
CC(Cc1ccc(O)cc1)NCC(O)c1cc(O)cc(O)c1 (centres undefined)	range 2
Cc1c(N)nc(C(CC(N)=O)NCC(N)C(N)=O)nc1C(=O)NC(C(=O)NC(C)C(O)C(C)C(=O)NC(C(=O)NCCc1nc(-c2nc(C(=O)NCCC[S+](C)C)cs2)cs1)C(C)O)C(O[C@@H]1O[C@@H](CO)[C@@H](O)[C@H](O)[C@@H]1O[C@H]1O[C@H](CO)[C@@H](O)[C@H](OC(N)=O)[C@@H]1O)c1cnc[nH]1 (some centres undefined)	range 1
